assay: qHTS for Inhibitors of Inflammasome Signaling: IL-1-beta AlphaLISA Primary Screen; conditions: THP-1 LPS/ATP IL-1B secretion, 16 h; at 57.5 µM, active compounds read low; also: % is scaled to controls: 0 for no effect and ±100 for the full control effect
The whole screen tested about 360,000 compounds, of which about 17,000 (4.7%) were called active. Another 5% or so got no clear call; they are omitted. For the sample, actives were picked, then their nearest neighbours and some compounds at random.
QUANTITY MEASURED: activity change (%)
API: value field is a number in %; no unit string.

[Q] Please look up its activity change: `Cn1cc([N+](=O)[O-])c(C(=O)Nc2ccc3c(c2)OCCO3)n1`
[A] -66.8

[Q] Can you check CCOC(=O)C1=C(N)N(c2ccc(C)cc2)C2=C(C(=O)CCC2)C1c1cccs1 (stereo unspecified) next?
[A] -55.3

[Q] Can you check `O=C(c1cccnc1)N(Cc1ccccc1)C(=O)c1cccnc1` next?
[A] 33

[Q] Can you check CCOC(=O)c1c(NC(=O)c2ccc(S(=O)(=O)N(C)CC3CCCO3)cc2)sc2c1CC(C)(C)NC2(C)C (stereo unspecified) next?
[A] -16.8

[Q] Can you check `Cc1nc(-c2ccc(F)cc2)c(CC(=O)N2CCN(S(=O)(=O)c3ccc(F)cc3)CC2)s1` next?
[A] -7.47

[Q] Can you check `COC(=O)c1sccc1NC(=O)COc1ccc(Cl)cc1` next?
[A] -5.02

[Q] Can you check `O=[N+]([O-])c1cccc(/C=N/Nc2ncc(Br)cn2)c1` next?
[A] -8.3

[Q] Can you check `CSc1ncnc2c1ncn2CCCNCc1ccco1` next?
[A] 15.8

[Q] Can you check `O=C(Nc1ccc2c(c1)OCCO2)c1ccoc1` next?
[A] -12.9

[Q] Can you check `Cc1ccc(O)c(-c2cc(C(=O)NCc3ccccc3)[nH]n2)c1` next?
[A] -0.0227

[Q] Can you check `CCCc1cc(=O)[nH]c(SCC(=O)N2CCN(S(=O)(=O)c3ccc(C)cc3C)CC2)n1` next?
[A] 0

[Q] Can you check `CCCOc1ccc(F)cc1-c1cc(C(=O)Nc2ccc(F)cc2)[nH]n1` next?
[A] 3.22

[Q] Can you check `Cc1cc(C)c2nc(-c3cccnc3)cc(C(=O)Nc3ccc(S(=O)(=O)Nc4onc(C)c4C)cc3)c2c1` next?
[A] 16.5

[Q] Can you check O=C1CCCC2=C1C(c1cccs1)CC(=O)N2c1ccc(F)cc1 (stereo unspecified) next?
[A] 20.1

[Q] Can you check `O=[N+]([O-])c1ncc(Br)cc1Nc1ccccc1` next?
[A] -71.2

[Q] Can you check `CC(=O)C[C@@H]1OC[C@H](C)N1S(=O)(=O)c1ccc(C)cc1` next?
[A] -13.9

[Q] Can you check `COC(=O)c1c(NC(=O)COc2ccc(Cl)cc2Cl)sc2c1CC(C)(C)NC2(C)C` next?
[A] -99.6

[Q] Can you check `CN(CCc1ccccc1)c1ccc([N+](=O)[O-])cn1` next?
[A] 25.8

[Q] Can you check CC1(c2ccccc2)CC(C)(C)N(C(=O)c2cc([N+](=O)[O-])cc([N+](=O)[O-])c2)c2ccccc21 (stereo unspecified) next?
[A] 5.37

[Q] Can you check `Cc1onc(C(=O)Nc2ccc3c(c2)OCO3)c1[N+](=O)[O-]` next?
[A] -7.05

[Q] Can you check `Cc1ccc(S(=O)(=O)N2CCOCC2)cc1NC(=O)c1ccncc1` next?
[A] 6.64
